Target: T1, BSA-conjugated Aβ heptapeptide AEFRHDC (C-terminal Cys coupled to NSMP-activated BSA);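 further: ELISA of antibody at 10 or 2 µg/ml binding plate-coated BSA–peptide conjugates, detected with HRP anti-human Ig and TMB colour, mock-treated BSA without peptide as negative control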
T1 construct: also called Peptide 2-7
T1 peptide: AEFRHDC
Assay: ELISA
Please provide measured OD ratio 2-7/BSA for the entries that follow.
Lab note: jot down the number only; don't add units.

Sample MS-Roche #7.2.H1 Fab (Fab, V domains shown) VH: QVQLVESGGGLVQPGGSLRLSCAASGFTFSSYAMSWVRQAPGKGLEWVSAINANGLKKYYADSVKGRFTISRDNSKNTLYLQMNSLRAEDTAVYYCARGKGNTHKPYGYVRYFDVWGQGTLVTVSS VL: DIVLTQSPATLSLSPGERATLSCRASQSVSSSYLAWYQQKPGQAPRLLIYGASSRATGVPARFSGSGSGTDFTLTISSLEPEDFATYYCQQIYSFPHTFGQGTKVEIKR ; OD ratio 2-7/BSA observed: 38

Quick note, OD ratio 2-7/BSA for MS-Roche #7.2.H4 Fab (Fab, V domains shown) VH: QVQLVESGGGLVQPGGSLRLSCAASGFTFSSYAMSWVRQAPGKGLEWVSAINSKGSRIYYADSVKGRFTISRDNSKNTLYLQMNSLRAEDTAVYYCARGKGNTHKPYGYVRYFDVWGQGTLVTVSS VL: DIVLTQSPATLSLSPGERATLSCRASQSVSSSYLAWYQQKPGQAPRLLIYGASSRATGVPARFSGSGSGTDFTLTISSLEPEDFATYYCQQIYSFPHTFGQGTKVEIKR landed at 23

// recorded OD ratio 2-7/BSA for MS-Roche #7.9.H4 Fab (Fab, V domains shown, assembled) VH: QVQLVESGGGLVQPGGSLRLSCAASGFTFSSYAMSWVRQAPGKGLEWVSAINAVGMKKFYADSVKGRFTISRDNSKNTLYLQMNSLRAEDTAVYYCARGKGNTHKPYGYVRYFDVWGQGTLVTVSS VL: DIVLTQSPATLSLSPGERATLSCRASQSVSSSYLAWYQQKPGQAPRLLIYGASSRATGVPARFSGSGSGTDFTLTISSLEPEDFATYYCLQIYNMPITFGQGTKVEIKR : 30

Given item MS-Roche #7.12 Fab (Fab, V domains shown) VH: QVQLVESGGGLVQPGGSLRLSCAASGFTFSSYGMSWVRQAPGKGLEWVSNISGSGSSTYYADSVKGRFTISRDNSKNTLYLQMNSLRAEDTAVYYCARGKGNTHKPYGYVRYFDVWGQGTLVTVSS VL: DIVLTQSPATLSLSPGERATLSCRASQYVSSPYLAWYQQKPGQAPRLLISGSSNRATGVPARFSGSGSGTDFTLTISSLEPEDFAVYYCLQLYNIPNTFGQGTKVEIKR , the value recorded as its OD ratio 2-7/BSA is 38
